- target.of.assay: SMARCA2 (Homo sapiens, UniProt P51531)
- Sequence (P51531 whole entry): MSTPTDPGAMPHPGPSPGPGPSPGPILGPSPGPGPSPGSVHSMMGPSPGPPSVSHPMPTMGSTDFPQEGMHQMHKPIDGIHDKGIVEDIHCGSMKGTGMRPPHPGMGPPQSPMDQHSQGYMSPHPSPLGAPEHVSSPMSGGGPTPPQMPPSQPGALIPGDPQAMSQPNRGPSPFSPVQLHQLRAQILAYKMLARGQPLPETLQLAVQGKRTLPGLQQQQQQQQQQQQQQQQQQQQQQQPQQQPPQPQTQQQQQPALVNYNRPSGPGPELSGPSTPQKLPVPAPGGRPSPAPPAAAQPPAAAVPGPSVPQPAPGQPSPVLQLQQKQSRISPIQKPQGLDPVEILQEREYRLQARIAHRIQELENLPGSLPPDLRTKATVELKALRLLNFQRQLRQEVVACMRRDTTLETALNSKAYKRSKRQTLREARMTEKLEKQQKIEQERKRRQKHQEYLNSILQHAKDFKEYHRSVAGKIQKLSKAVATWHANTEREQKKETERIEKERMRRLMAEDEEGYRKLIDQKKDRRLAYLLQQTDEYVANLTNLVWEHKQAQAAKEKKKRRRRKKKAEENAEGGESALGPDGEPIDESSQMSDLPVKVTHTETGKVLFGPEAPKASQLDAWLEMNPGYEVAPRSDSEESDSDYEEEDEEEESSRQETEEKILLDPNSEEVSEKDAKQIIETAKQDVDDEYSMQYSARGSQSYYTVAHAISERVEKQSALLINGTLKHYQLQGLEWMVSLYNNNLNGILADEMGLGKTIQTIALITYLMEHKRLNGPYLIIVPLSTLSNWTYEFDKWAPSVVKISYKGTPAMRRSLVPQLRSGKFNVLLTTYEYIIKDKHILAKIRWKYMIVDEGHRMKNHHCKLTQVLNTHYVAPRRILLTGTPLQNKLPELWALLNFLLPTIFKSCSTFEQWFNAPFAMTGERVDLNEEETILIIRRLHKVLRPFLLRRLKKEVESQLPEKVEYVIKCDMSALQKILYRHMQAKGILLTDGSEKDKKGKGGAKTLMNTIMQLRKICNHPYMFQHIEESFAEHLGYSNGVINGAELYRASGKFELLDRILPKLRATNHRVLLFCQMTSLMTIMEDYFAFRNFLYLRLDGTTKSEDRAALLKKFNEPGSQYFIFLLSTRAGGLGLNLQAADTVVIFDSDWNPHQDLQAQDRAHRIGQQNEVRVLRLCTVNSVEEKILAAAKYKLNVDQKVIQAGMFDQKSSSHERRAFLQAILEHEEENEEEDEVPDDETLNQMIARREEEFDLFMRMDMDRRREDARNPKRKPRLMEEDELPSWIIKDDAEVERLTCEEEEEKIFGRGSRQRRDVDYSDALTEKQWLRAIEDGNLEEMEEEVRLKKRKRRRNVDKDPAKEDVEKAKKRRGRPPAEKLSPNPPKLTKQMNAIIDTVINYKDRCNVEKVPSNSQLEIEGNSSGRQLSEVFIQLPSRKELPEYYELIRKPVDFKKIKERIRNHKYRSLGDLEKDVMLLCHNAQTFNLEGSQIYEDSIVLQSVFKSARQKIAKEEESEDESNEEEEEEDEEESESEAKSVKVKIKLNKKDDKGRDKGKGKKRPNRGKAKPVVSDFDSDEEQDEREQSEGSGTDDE
- assay.remarks: HiBiT assay for protein degradation, Hela SMARCA2-HiBiT cells (A series);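 note: 24 h compound treatment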
- Assay type: cell-based
- Design: Hela cells were genetically modified via CRISPR/Cas9 to fuse HiBiT to the carboxy terminus of SMARCA2; host or cells: HeLa (CRISPR/Cas9 HiBiT knock-in)
- run.conditions: Hela SMARCA2-HiBiT cells, 24 hours treatment
measured.attribute: SMARC A2 Hela HiBit Dmax (%)

INSERT INTO assay_data (structure_string, result_value) VALUES
  ('Cc1ncsc1-c1ccc([C@H](C)NC(=O)[C@@H]2C[C@@H](O)CN2C(=O)[C@@H](n2cc(CCCCCN3CCC(c4ccc5c(c4)-n4c(nc(=O)c6c(Br)cccc64)C54CCCCC4)CC3)nn2)C(C)(C)C)cc1', 'A (A (>90% degradation))'),
  ('Cc1ncsc1-c1ccc([C@H](C)NC(=O)[C@@H]2C[C@@H](O)CN2C(=O)[C@@H](n2cc(C3(CN4CCC(c5ccc6c(c5)-n5c(nc(=O)c7c(Br)cccc75)C65CCCCC5)CC4)CC3)nn2)C(C)(C)C)cc1', 'A (A (>90% degradation))');

Data provenance is patent US20260092071A1.
